Recorded pIC50 values for a group of compounds are listed next.
- Tested on: Hepatitis C virus
- run_description: Inhibition of HCV genotype 1b recombinant N-His-tagged NS5B Cdelta21 polymerase expressed in Escherichia coli DH5alpha using [alpha-32P]UTP after 60 mins by liquid scintillation counting
- Design: species or system Hepatitis C virus subtype 1b
- condition_summary: DH5-alpha, 1 h
In plain terms, pIC50 is the concentration in mol/L turned into minus its base-10 logarithm.

structure: CCCCc1ccc(C(SC[C@H](N)C(=O)O)(c2ccccc2)c2ccccc2)cc1
target_or_test_system: Hepatitis C virus
number: 4.40
--
structure: CC(C)(SC(c1ccccc1)(c1ccccc1)c1ccccc1)[C@H](N)C(=O)O
target_or_test_system: Hepatitis C virus
number: 4.61

Query compound follows.
Recall and state the measured pIC50 for CC(C)(SC(c1ccccc1)(c1ccccc1)c1ccccc1)[C@@H](N)C(=O)O . 4.65
